Tested on: MM.1S cells
Experiment: Inhibitory effect on the proliferation of MM.1S, MTS cell viability test
Format: cell-based
Details: Homo sapiens, MM1.S, 168 h, multiple myeloma MM.1S cells, 7 days incubation, read-out: Tumor cell inhibitory activity
The reader will find reported IC50 values listed item by item below.

Some molecules with recorded IC50:
[[record]]
molecule = "N#CC1(c2cc(Cl)cc(Cl)c2)CCN(CCCCCc2cccc3c2CN(C2CCC(=O)NC2=O)C3=O)CC1 (stereo not drawn)"
experimental_system = "MM.1S cells"
metric_name = "IC50"
result = "100 to 1000 nM"

[[record]]
molecule = "O=C1CCC(N2Cc3c(CCCCN4CCN(c5ccc(Cl)c(Cl)c5)CC4)cccc3C2=O)C(=O)N1 (stereo not drawn)"
experimental_system = "MM.1S cells"
metric_name = "IC50"
result = "< 100 nM"

[[record]]
molecule = "COc1ccccc1N1CCN(CCCCCc2cccc3c2CN(C2CCC(=O)NC2=O)C3=O)CC1 (stereo not drawn)"
experimental_system = "MM.1S cells"
metric_name = "IC50"
result = "< 100 nM"

[[record]]
molecule = "O=C1CCC(N2Cc3c(OCCCCOc4ccnc5ccccc45)cccc3C2=O)C(=O)N1 (stereo not drawn)"
experimental_system = "MM.1S cells"
metric_name = "IC50"
result = "< 100 nM"

[[record]]
molecule = "O=C1CCC(N2Cc3c(CCCCN4CCN(c5ccc(F)cc5F)CC4)cccc3C2=O)C(=O)N1 (stereo not drawn)"
experimental_system = "MM.1S cells"
metric_name = "IC50"
result = "< 100 nM"

[[record]]
molecule = "O=C1CCC(N2Cc3c(OCCCCNC(=O)N4CCC5(CC4)OCc4ccc(Cl)cc45)cccc3C2=O)C(=O)N1 (stereo not drawn)"
experimental_system = "MM.1S cells"
metric_name = "IC50"
result = "< 100 nM"

[[record]]
molecule = "O=C1CCC(N2Cc3c(CCCCCN4CCC5(CC4)OC(=O)Nc4ncccc45)cccc3C2=O)C(=O)N1 (stereo not drawn)"
experimental_system = "MM.1S cells"
metric_name = "IC50"
result = "100 to 1000 nM"

[[record]]
molecule = "N#CC1(c2cccc(Cl)c2)CCN(C(=O)CCCCOc2cccc3c2CN(C2CCC(=O)NC2=O)C3=O)CC1 (stereo not drawn)"
experimental_system = "MM.1S cells"
metric_name = "IC50"
result = "< 100 nM"


Query: State its IC50 on MM.1S cells: CC(=O)N[C@@H](CCCc1cccc2c1CN(C1CCC(=O)NC1=O)C2=O)C(=O)N[C@H](C)c1ccccc1 (stereo partly drawn)
Result: < 100 nM

Query: State its IC50 on MM.1S cells: COc1ccc(N2CCN(CCCCc3cccc4c3CN(C3CCC(=O)NC3=O)C4=O)CC2)cc1 (stereo not drawn)
Result: 100 to 1000 nM

Query: State its IC50 on MM.1S cells: COc1ccc(OC)c(C2(C#N)CCN(CCCCCc3cccc4c3CN(C3CCC(=O)NC3=O)C4=O)CC2)c1 (stereo not drawn)
Result: 100 to 1000 nM

Query: State its IC50 on MM.1S cells: Cc1ccc(NC(=O)[C@H](CCCc2cccc3c2CN(C2CCC(=O)NC2=O)C3=O)NC(=O)C2CCC2)cc1Cl (stereo partly drawn)
Result: < 100 nM

Query: State its IC50 on MM.1S cells: O=C1CCC(N2Cc3c(CCCCN4CCN(c5ccccc5F)CC4)cccc3C2=O)C(=O)N1 (stereo not drawn)
Result: < 100 nM

Query: State its IC50 on MM.1S cells: O=C1CCC(N2Cc3c(OCCCCCOc4ccnc5ccccc45)cccc3C2=O)C(=O)N1 (stereo not drawn)
Result: 100 to 1000 nM

Query: State its IC50 on MM.1S cells: O=C1CCC(N2Cc3c(OCCCCN4CCC5(CC4)OCc4ccc(Cl)cc45)cccc3C2=O)C(=O)N1 (stereo not drawn)
Result: < 100 nM
